# METHOD SUMMARY: in vivo
# TEST PARAMETERS: female, BALB/c, mouse, ip, 25 mg/kg
REPORTED ENDPOINT: half-life (h)
Report the figure in h without appending any unit label.

Need half-life, item N=c1c2c(-c3ccccc3)c(-c3ccccc3)n(Cc3ccccc3)c2ncn1[C@H]1CC[C@H](O)CC1 [Compound 5f]
5.52

###

# METHOD SUMMARY: in vivo
# TEST PARAMETERS: female, BALB/c, mouse, ip, 25 mg/kg, C48h (μM)
REPORTED ENDPOINT: concentration at 48 h
Answer format: value, then unit.

Need concentration at 48 h, item N=c1c2c(-c3ccccc3)c(-c3ccccc3)n(Cc3ccccc3)c2ncn1[C@H]1CC[C@H](O)CC1 [Compound 5f]
0.011 µM
